B1: library; numbered along this chain (parent)
chain: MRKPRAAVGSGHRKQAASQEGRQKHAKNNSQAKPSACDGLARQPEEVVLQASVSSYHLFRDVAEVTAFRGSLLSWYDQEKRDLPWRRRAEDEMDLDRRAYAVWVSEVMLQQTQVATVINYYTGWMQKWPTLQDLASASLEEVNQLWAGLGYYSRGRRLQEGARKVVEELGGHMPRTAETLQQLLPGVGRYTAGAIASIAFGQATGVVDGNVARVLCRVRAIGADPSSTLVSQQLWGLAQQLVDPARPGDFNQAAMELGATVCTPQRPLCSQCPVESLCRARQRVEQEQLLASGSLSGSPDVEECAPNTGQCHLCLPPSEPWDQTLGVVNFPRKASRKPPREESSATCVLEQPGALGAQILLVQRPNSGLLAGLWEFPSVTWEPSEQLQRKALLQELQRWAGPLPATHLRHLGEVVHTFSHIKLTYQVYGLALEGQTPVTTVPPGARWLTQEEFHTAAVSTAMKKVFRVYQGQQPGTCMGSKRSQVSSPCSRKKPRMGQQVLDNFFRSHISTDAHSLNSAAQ

variants of: B1; assay: 8OG:A repair function score (normalized; synonymous = 0, nonsense = -1) (normalized log-likelihood score); higher = more repair activity (WT-like); settings: with 8OG:A DNA repair reporter (GFP) in HEK-293 MUTYH KO cells;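 further: cells sorted at 72 h after reporter transfection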
Classify by measured 8OG:A repair function score: rule met if it is equal to or exceeds -0.1, rule not met if it is smaller.

Solved entries:
1) Y121Q: rule not met
2) M125E: rule not met
3) C269P: rule not met
4) A457W: rule not met
5) P264D: rule not met
6) A6E: rule met
7) R217D: rule not met
8) V214M: rule not met
9) G353E: rule not met
10) M108L: rule not met

Tell me whether 8OG:A repair function score is at least -0.1 here: S459P
rule not met

Another variant to look at: Q43K
rule met

Another variant to look at: K127L
rule met

Another variant to look at: T424N
rule not met
